The entries below are paired with their reported Stability (%) Freeze-thaw stability.
Test: Stability of the analytes in rat plasma samples (freeze-thaw, short-term, long-term, autosampler)
Assay type: in vitro ADME
Settings: concentration 10 (µg/mL), three freeze-thaw cycles, n = 3
value_type: Stability (%) Freeze-thaw stability

molecule="CCC/C=C1\\OC(=O)C2=C1CCC=C2 [Ligustilide, ligustilide]" unit_tag=% result_value=2.7
molecule=COc1ccc(-c2coc3cc(O)ccc3c2=O)cc1 unit_tag=% result_value=−4.9
molecule=COc1ccc(-c2coc3cc(O[C@@H]4O[C@H](CO)[C@@H](O)[C@H](O)[C@H]4O)ccc3c2=O)cc1 unit_tag=% result_value=−2.5
molecule="COc1ccc(-c2coc3cc(O[C@@H]4O[C@H](CO)[C@@H](O)[C@H](O)[C@H]4O)ccc3c2=O)cc1O [Calycosin-7-O-β-D-glucoside, calycosin-7-O-β-D-glucoside]" unit_tag=% result_value=4.9
molecule="CC(C)(O)[C@@H]1CC[C@](C)([C@H]2[C@@H](O)C[C@@]3(C)[C@@H]4C[C@H](O[C@@H]5O[C@H](CO)[C@@H](O)[C@H](O)[C@H]5O)[C@H]5C(C)(C)[C@@H](O[C@@H]6OC[C@@H](O)[C@H](O)[C@H]6O)CC[C@@]56C[C@@]46CC[C@]23C)O1 [Astragaloside IV, astragaloside IV]" unit_tag=% result_value=−4.1
molecule=C[C@@]12C[C@@]3(O)O[C@@H](O1)[C@]1(COC(=O)c4ccccc4)[C@H]3C[C@@]12O[C@@H]1O[C@H](CO)[C@@H](O)[C@H](O)[C@H]1O unit_tag=% result_value=7.3
molecule="CC(=O)O[C@H]1[C@H](O[C@H]2CC[C@]34C[C@]35CC[C@]3(C)[C@@H]([C@@]6(C)CC[C@@H](C(C)(C)O)O6)[C@@H](O)C[C@@]3(C)[C@@H]5C[C@H](O[C@@H]3O[C@H](CO)[C@@H](O)[C@H](O)[C@H]3O)[C@H]4C2(C)C)OC[C@@H](O)[C@@H]1O [Astragaloside II, astragaloside II]" unit_tag=% result_value=−2.3
molecule=COc1ccc(-c2coc3cc(O)ccc3c2=O)cc1O unit_tag=% result_value=9.6
molecule="CC(=O)OC1C(O)COC(OC2CCC34CC35CCC3(C)C(C6(C)CCC(C(C)(C)O)O6)C(O)CC3(C)C5CC(OC3OC(CO)C(O)C(O)C3O)C4C2(C)C)C1OC(C)=O (stereo not drawn) [Astragaloside I, astragaloside I]" unit_tag=% result_value=3.8

----------
Test: Stability of the analytes in rat plasma samples (freeze-thaw, short-term, long-term, autosampler)
Type: in vitro ADME
Details: concentration 100 (µg/mL), autosampler 8°C 12 h, n = 3
value_type: Stability (%) Autosampler stability

compound="CCC/C=C1\\OC(=O)C2=C1CCC=C2 [Ligustilide, ligustilide]" value_type="Stability (%) Autosampler stability" unit_tag=% result_value=−1.6
compound="CC(C)(O)[C@@H]1CC[C@](C)([C@H]2[C@@H](O)C[C@@]3(C)[C@@H]4C[C@H](O[C@@H]5O[C@H](CO)[C@@H](O)[C@H](O)[C@H]5O)[C@H]5C(C)(C)[C@@H](O[C@@H]6OC[C@@H](O)[C@H](O)[C@H]6O)CC[C@@]56C[C@@]46CC[C@]23C)O1 [Astragaloside IV, astragaloside IV]" value_type="Stability (%) Autosampler stability" unit_tag=% result_value=−8.6
compound=COc1ccc(-c2coc3cc(O)ccc3c2=O)cc1 value_type="Stability (%) Autosampler stability" unit_tag=% result_value=−4.6
compound=COc1ccc(-c2coc3cc(O)ccc3c2=O)cc1O value_type="Stability (%) Autosampler stability" unit_tag=% result_value=−2.2
compound=COc1ccc(-c2coc3cc(O[C@@H]4O[C@H](CO)[C@@H](O)[C@H](O)[C@H]4O)ccc3c2=O)cc1 value_type="Stability (%) Autosampler stability" unit_tag=% result_value=8.1
